Assay: The drug is tested on Z-021 corresponding to metagenome with ENA study accession number: PRJEB37062 and ENA sample accession number: ERS12561820 for biotransformation under anaerobic condition. The drug concentrations were measured over 9 timepoints collected between 0 and 24 hours of incubation by liquid-chromatography-coupled mass spectrometry (LC–MS); further: call rule not given here
Details: 2 µM
observed property: Bacterial Biotransformation

Illustrative cases are given below, each with its answer.
O=C(CCCN1CCC2(CC1)C(=O)NCN2c1ccccc1)c1ccc(F)cc1	Compound NOT metabolized
COc1ccc(C(CN(C)C)C2(O)CCCCC2)cc1 (centres undefined)	Compound NOT metabolized
CCN(CC)C(=O)C1(c2ccccc2)CC1CN (centres undefined)	Compound NOT metabolized
OC(c1cc(C(F)(F)F)nc2c(C(F)(F)F)cccc12)C1CCCCN1 (centres undefined)	Compound metabolized
CC(C)(C)NC(=O)[C@H]1CC[C@H]2[C@@H]3CC[C@H]4NC(=O)C=C[C@]4(C)[C@H]3CC[C@]12C [FINASTERIDE]	Compound NOT metabolized
CC12CC3CC(C)(C1)CC(N)(C3)C2 [MEMANTINE]	Compound NOT metabolized
Cc1cc2c(s1)Nc1ccccc1N=C2N1CCN(C)CC1	Compound NOT metabolized
COc1cc2nc(N3CCN(C(=O)C4CCCO4)CC3)nc(N)c2cc1OC (centres undefined)	Compound NOT metabolized

Lab note: measured Bacterial Biotransformation of OCCN(CCO)c1nc(N2CCCCC2)c2nc(N(CCO)CCO)nc(N3CCCCC3)c2n1 was Compound metabolized
